Recorded values, source ChEMBL document CHEMBL5724914.

settings: human gut metagenome, 24 h, 2 µM; note: call rule not given here
ASSAY ENDPOINT: Bacterial Biotransformation

Worked cases, answers included:
MOLECULE | Bacterial Biotransformation
CC(C)NCC(O)COc1ccc(COCCOC(C)C)cc1.CC(C)NCC(O)COc1ccc(COCCOC(C)C)cc1.O=C(O)/C=C/C(=O)O (stereo not drawn) [BISOPROLOL FUMARATE] | Compound NOT metabolized
CCOC(=O)[C@H](CCc1ccccc1)N[C@H]1CCc2ccccc2N(CC(=O)O)C1=O | Compound metabolized
CC(=O)CC(c1ccccc1)c1c(O)c2ccccc2oc1=O (stereo not drawn) | Compound metabolized
CN1C(=O)CCS(=O)(=O)C1c1ccc(Cl)cc1 (stereo not drawn) | Compound NOT metabolized
O=C1NCC2(CCN(CCc3ccccc3)CC2)O1 [FENSPIRIDE] | Compound NOT metabolized

Would you be so kind as to report Bacterial Biotransformation for each listed record?
1. Cc1nc2n(c(=O)c1CCN1CCC(c3noc4cc(F)ccc34)CC1)CCCC2O (stereo not drawn)
2. NS(=O)(=O)c1cc2c(cc1Cl)N=C(CSCc1ccccc1)NS2(=O)=O [BENZTHIAZIDE]

Reply:
Compound metabolized
Compound NOT metabolized

Task item: Using the record for CS(=O)(=O)O.OC(CCN1CCCCC1)(c1ccccc1)c1ccccc1 [PRIDINOL METHANESULFONATE] , state its measured Bacterial Biotransformation.
Reply: Compound NOT metabolized

* * *

assay: The drug is tested on Z-024 corresponding to pig gut metagenome with ENA study accession number: PRJEB37062 and ENA sample accession number: ERS12561823 for biotransformation under anaerobic condition. The drug concentrations were measured over 9 timepoints collected between 0 and 24 hours of incubation by liquid-chromatography-coupled mass spectrometry (LC–MS); settings: 2 µM
Where a SMILES comes first, the peptide text is derived from it. [ ]: non-standard residue; d: D form. pGlu = O=C1CC[C@@H](C(=O)O)N1; Thz = O=C(O)[C@@H]1CSCN1
ASSAY ENDPOINT: Bacterial Biotransformation

Some compounds with recorded Bacterial Biotransformation:
COMPOUND | Bacterial Biotransformation
COC(=O)[C@H]1[C@H]2C[C@@H]3c4[nH]c5cc(OC)ccc5c4CCN3C[C@H]2C[C@@H](OC(=O)c2cc(OC)c(OC)c(OC)c2)[C@@H]1OC [RESERPINE] | Compound NOT metabolized
O=C1CC[C@@H](C(=O)N2CSC[C@H]2C(=O)O)N1 [PIDOTIMOD] ([pGlu]-[Thz]-OH) | Compound metabolized
COc1cc2nc(N(C)CCCNC(=O)C3CCCO3)nc(N)c2cc1OC (stereo not given) [ALFUZOSIN] | Compound NOT metabolized
C=CCN1CC[C@]23c4c5ccc(O)c4O[C@H]2C(=O)CC[C@@]3(O)[C@H]1C5 [NALOXONE] | Compound NOT metabolized

Give one value of Bacterial Biotransformation per listed compound.
1. CC(C)(C#N)c1cc(Cn2cncn2)cc(C(C)(C)C#N)c1 [ANASTROZOLE]
2. Cc1nc2n(c(=O)c1CCN1CCC(c3noc4cc(F)ccc34)CC1)CCCC2 [RISPERIDONE]
3. COc1ccc2c3c1O[C@H]1C[C@@H](O)C=C[C@@]31CCN(C)C2 [GALANTAMINE]
4. CCCc1nc2c(C)cc(-c3nc4ccccc4n3C)cc2n1Cc1ccc(-c2ccccc2C(=O)O)cc1
5. COc1ccccc1OCC(O)CN1CCN(CC(=O)Nc2c(C)cccc2C)CC1 (stereo not given) [RANOLAZINE]
6. C[C@@H](CO)NC(=O)[C@@H]1C=C2c3cccc4[nH]cc(c34)C[C@H]2N(C)C1.O=C(O)/C=C\C(=O)O [ERGONOVINE MALEATE]
7. Cc1ccnc2c1NC(=O)c1cccnc1N2C1CC1 [NEVIRAPINE]
8. CC(Oc1c(Cl)cccc1Cl)C1=NCCN1 (stereo not given) [LOFEXIDINE]

Reply:
["Compound metabolized", "Compound metabolized", "Compound NOT metabolized", "Compound metabolized", "Compound NOT metabolized", "Compound NOT metabolized", "Compound NOT metabolized", "Compound NOT metabolized"]

* * *

assay: The drug is tested on WLS-073 corresponding to human gut metagenome with ENA study accession number: PRJEB37062 and ENA sample accession number: ERS12561749 for biotransformation under anaerobic condition. The drug concentrations were measured over 9 timepoints collected between 0 and 24 hours of incubation by liquid-chromatography-coupled mass spectrometry (LC–MS); details: 2 µM
ASSAY ENDPOINT: Bacterial Biotransformation

Reference set (8 entries):
COMPOUND | Bacterial Biotransformation
CCCCc1nc(Cl)c(CO)n1Cc1ccc(-c2ccccc2-c2nn[nH]n2)cc1 | Compound NOT metabolized
CS(=O)(=O)O.O.O.O.O=C1Cc2cc(CCN3CCN(c4nsc5ccccc45)CC3)c(Cl)cc2N1 [ZIPRASIDONE MESYLATE] | Compound metabolized
CN(C)CCc1c[nH]c2ccc(Cn3cncn3)cc12.O=C(O)c1ccccc1 [RIZATRIPTAN BENZOATE] | Compound NOT metabolized
Cc1nc(-c2ccc(OCC(C)C)c(C#N)c2)sc1C(=O)O | Compound NOT metabolized
Cc1ccccc1N1C(=O)c2cc(S(N)(=O)=O)c(Cl)cc2NC1C (stereo unspecified) | Compound NOT metabolized
Cc1ccc(S(=O)(=O)NC(=O)NN2CCCCCC2)cc1 [TOLAZAMIDE] | Compound metabolized
Nc1nc2ccc(OC(F)(F)F)cc2s1 | Compound metabolized
CC(C)(C(=O)O)c1ccc(C(O)CCCN2CCC(C(O)(c3ccccc3)c3ccccc3)CC2)cc1 (stereo unspecified) [FEXOFENADINE] | Compound NOT metabolized

// batch mode: one Bacterial Biotransformation value per listed entry
1. CC(=O)O[C@]1(C(C)=O)CC[C@H]2[C@@H]3C=C(Cl)C4=CC(=O)[C@@H]5C[C@@H]5[C@]4(C)[C@H]3CC[C@@]21C [CYPROTERONE ACETATE]
2. O=c1[nH]c2ccccc2n1CCCN1CCC(n2c(=O)[nH]c3cc(Cl)ccc32)CC1
3. COC(=O)C1=C(C)NC(C)=C(C(=O)OC(C)C)C1c1cccc2nonc12 (stereo unspecified)
4. NS(=O)(=O)c1cc2c(cc1Cl)N=C(CSCc1ccccc1)NS2(=O)=O [BENZTHIAZIDE]
5. CC(C)(C)NC[C@H](O)COc1ccccc1C1CCCC1.CC(C)(C)NC[C@H](O)COc1ccccc1C1CCCC1.O=S(=O)(O)O [PENBUTOLOL SULFATE]
6. CC(C)OC(=O)C(C)(C)Oc1ccc(C(=O)c2ccc(Cl)cc2)cc1 [FENOFIBRATE]
7. C[C@@H](CO)NC(=O)[C@@H]1C=C2c3cccc4[nH]cc(c34)C[C@H]2N(C)C1.O=C(O)/C=C\C(=O)O [ERGONOVINE MALEATE]

Reply:
1: Compound metabolized; 2: Compound NOT metabolized; 3: Compound NOT metabolized; 4: Compound NOT metabolized; 5: Compound metabolized; 6: Compound NOT metabolized; 7: Compound metabolized

Task item: Find the measured Bacterial Biotransformation of Cc1ccc(S(=O)(=O)NC(=O)NN2CC3CCCC3C2)cc1 (stereo unspecified) [GLICLAZIDE] and report it.
Reply: Compound metabolized

* * *

test: The drug is tested on Z-011 corresponding to mouse gut metagenome with ENA study accession number: PRJEB37062 and ENA sample accession number: ERS12561811 for biotransformation under anaerobic condition. The drug concentrations were measured over 9 timepoints collected between 0 and 24 hours of incubation by liquid-chromatography-coupled mass spectrometry (LC–MS); details: 2 µM
ASSAY ENDPOINT: Bacterial Biotransformation

Consider the worked cases shown below.
COMPOUND | Bacterial Biotransformation
CC(=O)OCC(=O)[C@@]12N=C(C)O[C@@H]1C[C@H]1[C@@H]3CCC4=CC(=O)C=C[C@]4(C)[C@H]3[C@@H](O)C[C@@]12C | Compound metabolized
CC(C)NCC(O)COc1ccc(CCOCC2CC2)cc1 (stereo not drawn) | Compound NOT metabolized
CN1CCc2c(c3ccccc3n2Cc2ccccc2)C1.CN1CCc2c(c3ccccc3n2Cc2ccccc2)C1.O=S(=O)(O)c1cccc2c(S(=O)(=O)O)cccc12 | Compound NOT metabolized
CC(C)c1nc(CN(C)C(=O)N[C@H](C(=O)N[C@@H](Cc2ccccc2)C[C@H](O)[C@H](Cc2ccccc2)NC(=O)OCc2cncs2)C(C)C)cs1 | Compound metabolized
CC(C)N(CCC(C(N)=O)(c1ccccc1)c1ccccn1)C(C)C.O=P(O)(O)O (stereo not drawn) [DISOPYRAMIDE PHOSPHATE] | Compound NOT metabolized
CC(C)(Oc1ccc(CCNC(=O)c2ccc(Cl)cc2)cc1)C(=O)O [BEZAFIBRATE] | Compound NOT metabolized
Cc1ccc(/C(=C\CN2CCCC2)c2ccccn2)cc1 | Compound NOT metabolized

Kindly review the next compound as well.
Task item: Supply reported Bacterial Biotransformation belonging to this compound: COc1ccccc1OCC(O)COC(N)=O (stereo not drawn)
Reply: Compound NOT metabolized
